Each recorded value in this set is attributed to ChEMBL document CHEMBL5550219.

measurement_protocol: Cmax in mouse at 50 mg/kg, ip measured for 12 hrs by HPLC analysis
Assay type: ADME, organism-based
stated_conditions: in vivo
experimental_readout: Cmax (ng/mL)
Numbers only; they are read as ng/mL.

input: # Cmax lookup, item `COc1cc(N2CCN(C(=O)CCOCCOCCOCCNC(=O)[C@@H]3CCCN3)CC2)ccc1Nc1ncc(Cl)c(Nc2ccccc2P(C)(C)=O)n1`
output: 33000

----------
measurement_protocol: AUC (0 to t) in mouse at 2 mg/kg, iv measured for 12 hrs by HPLC analysis
Assay type: ADME, organism-based
stated_conditions: in vivo
experimental_readout: AUC(0-t) at 12 h (ng·h/mL)
Numbers only; they are read as ng·h/mL.

input: # AUC(0-t) at 12 h lookup, item `COc1cc(N2CCN(C(=O)CCOCCOCCOCCNC(=O)[C@@H]3CCCN3)CC2)ccc1Nc1ncc(Cl)c(Nc2ccccc2P(C)(C)=O)n1`
output: 6080

----------
measurement_protocol: Tmax in mouse at 2 mg/kg, iv measured for 12 hrs by HPLC analysis
Type: ADME, organism-based
stated_conditions: in vivo
experimental_readout: Tmax (min)
Numbers only; they are read as min.

input: # Tmax lookup, item `COc1cc(N2CCN(C(=O)CCOCCOCCOCCNC(=O)[C@@H]3CCCN3)CC2)ccc1Nc1ncc(Cl)c(Nc2ccccc2P(C)(C)=O)n1`
output: 4.98

----------
measurement_protocol: Half life in mouse at 50 mg/kg, ip measured for 12 hrs by HPLC analysis
Type: ADME, organism-based
stated_conditions: in vivo
experimental_readout: half-life (h)
Numbers only; they are read as h.

input: # half-life lookup, item `COc1cc(N2CCN(C(=O)CCOCCOCCOCCNC(=O)[C@@H]3CCCN3)CC2)ccc1Nc1ncc(Cl)c(Nc2ccccc2P(C)(C)=O)n1`
output: 5.18

----------
measurement_protocol: Tmax in mouse at 50 mg/kg, ip measured for 12 hrs by HPLC analysis
Assay type: ADME, organism-based
stated_conditions: in vivo
experimental_readout: Tmax (min)
Numbers only; they are read as min.

input: # Tmax lookup, item `COc1cc(N2CCN(C(=O)CCOCCOCCOCCNC(=O)[C@@H]3CCCN3)CC2)ccc1Nc1ncc(Cl)c(Nc2ccccc2P(C)(C)=O)n1`
output: 30

----------
measurement_protocol: Half life in mouse at 2 mg/kg, iv measured for 12 hrs by HPLC analysis
Format: ADME, organism-based
stated_conditions: in vivo
experimental_readout: half-life

input: # half-life lookup, item `COc1cc(N2CCN(C(=O)CCOCCOCCOCCNC(=O)[C@@H]3CCCN3)CC2)ccc1Nc1ncc(Cl)c(Nc2ccccc2P(C)(C)=O)n1`
output: 2.87 h
